Data origin, for the record: patent US20130011845A1

Each item that follows carries a reported Represion fold, KLHL20.
tested on: KLHL20 3′UTR; test: dual-luciferase 3′UTR reporter assay, pAC-KLHL20; type: cell-based; conditions: luciferase reporter with KLHL20 3′UTR, human Hela cell lines; average of at least two independent experiments
quantity-kind: Represion fold, KLHL20 (fold)

INSERT INTO assay_data (substance, recorded_result) VALUES
  ('5′-UAAUACUGCCGGGUAAUGAUGGA-3′ [miR-200c]', 0.69),
  ('5′-UAAUACUGUCUGGUAAAACCGU-3′ (listed as RNA, chemistry not given here) [miR-429]', 0.55),
  ('5′-UAACACUGUCUGGUAAAGAUGG-3′ (listed as RNA, chemistry not given here) [miR-141]', 0.84),
  ('5′-UAAUACUGCCUGGUAAUGAUGA-3′ (listed as RNA, chemistry not given here) [miR-200b]', 0.85),
  ('5′-UAACACUGUCUGGUAACGAUGU-3′ (listed as RNA, chemistry not given here) [miR-200a]', 1.02);

---

test system: TCF7L1 3′UTR; assay: dual-luciferase 3′UTR reporter assay, pAC-TCF7L1; type: cell-based; conditions: luciferase reporter with TCF7L1 3′UTR, human Hela cell lines; average of at least two independent experiments
quantity-kind: Represion fold, TCF7L1

INSERT INTO assay_data (substance, recorded_result) VALUES
  ('5′-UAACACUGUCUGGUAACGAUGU-3′ (listed as RNA, chemistry not given here) [miR-200a]', '1.17 fold'),
  ('5′-UAAUACUGCCGGGUAAUGAUGGA-3′ [miR-200c]', '0.80 fold'),
  ('5′-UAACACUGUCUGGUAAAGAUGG-3′ (listed as RNA, chemistry not given here) [miR-141]', '0.91 fold'),
  ('5′-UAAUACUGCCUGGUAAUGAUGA-3′ (listed as RNA, chemistry not given here) [miR-200b]', '0.81 fold'),
  ('5′-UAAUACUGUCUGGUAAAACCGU-3′ (listed as RNA, chemistry not given here) [miR-429]', '0.71 fold');

---

tested on: SHC1 3′UTR; test: dual-luciferase 3′UTR reporter assay, pAC-SHC1; format: cell-based; details: luciferase reporter with SHC1 3′UTR, human Hela cell lines; average of at least two independent experiments
Entry flag: T if Represion fold, SHC1 reaches 2 fold; F if it does not.

INSERT INTO results (substance, class_assignment) VALUES
  ('5′-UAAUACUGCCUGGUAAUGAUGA-3′ (listed as RNA, chemistry not given here) [miR-200b]', 'F'),
  ('5′-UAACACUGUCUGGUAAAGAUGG-3′ (listed as RNA, chemistry not given here) [miR-141]', 'F'),
  ('5′-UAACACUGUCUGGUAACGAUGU-3′ (listed as RNA, chemistry not given here) [miR-200a]', 'F'),
  ('5′-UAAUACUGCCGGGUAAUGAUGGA-3′ [miR-200c]', 'F'),
  ('5′-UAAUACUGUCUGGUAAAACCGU-3′ (listed as RNA, chemistry not given here) [miR-429]', 'T');

---

test system: VAC14 3′UTR; assay: dual-luciferase 3′UTR reporter assay, pAC-VAC14; format: cell-based; details: luciferase reporter with VAC14 3′UTR, human Hela cell lines; average of at least two independent experiments
A collection of substances and their measured Represion fold, VAC14
quantity-kind: Represion fold, VAC14 (fold)

INSERT INTO measurements (substance, recorded_result) VALUES
  ('5′-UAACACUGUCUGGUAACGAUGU-3′ (listed as RNA, chemistry not given here) [miR-200a]', 1.19),
  ('5′-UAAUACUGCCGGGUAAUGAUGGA-3′ [miR-200c]', 1.20),
  ('5′-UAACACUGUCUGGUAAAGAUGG-3′ (listed as RNA, chemistry not given here) [miR-141]', 0.99),
  ('5′-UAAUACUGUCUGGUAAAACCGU-3′ (listed as RNA, chemistry not given here) [miR-429]', 1.17),
  ('5′-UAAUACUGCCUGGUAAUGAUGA-3′ (listed as RNA, chemistry not given here) [miR-200b]', 1.20);
